What inhibition at 50 µM was measured for each of the following?
- Tested on: HT-29
- test: Antiproliferative activity against human HT-29 cells overexpressing c-Src at 50 uM after 72 hrs by Cell titer assay
- Assay type: functional
- condition notes: HT-29, 72 h
Provide the reading as a plain figure in %.

# inhibition at 50 µM lookup, item Cc1ccc(-c2c3c(nn2-c2ccncc2)CC(C)(C)CC3=O)cc1Cl
65

Next record, please: COc1ccc(-n2nc3c(c2-c2ccc(C(C)(C)C)cc2)C(=O)CC(C)(C)C3)cc1OC
65

Moving on to the next molecule: O=C1CCCc2nn(-c3ccccc3)c(-c3ccc(Cl)c(Cl)c3)c21
65

Same read-out for O=C1CCCc2nn(-c3cccs3)c(-c3ccc(Cl)c(Cl)c3)c21 ?
62

Also, CC1(C)CC(=O)c2c(nn(-c3cccs3)c2C2CCCCC2)C1 please.
48

Here is the next molecule: Cc1ccc(-n2nc3c(c2-c2ccc(Cl)c(Cl)c2)C(=O)CCC3)cc1
48

Taken from ChEMBL document CHEMBL1932945.
